Compiled notes: published log10 Ki values involving Cruzipain (Trypanosoma cruzi, UniProt P25779).
Recorded Ki (log10, nM)

Please review the following examples before continuing.
>  <compound>
O=C(N[C@@H](Cc1ccccc1)C(=O)NC1CC(=O)N(CCCc2ccccc2)CC1=O)OCc1ccccc1 (stereo in doubt; 4e)

>  <log10 Ki>
1.20

$$$$
>  <compound>
CC(C)C[C@H](NC(=O)OCc1cccnc1)C(=O)N[C@@H](Cc1ccccc1)C(=O)CSC(C)(C)C

>  <log10 Ki>
0.68

$$$$
>  <compound>
O=C(N[C@@H](Cc1ccccc1)C(=O)N[C@@H](Cc1ccccc1)C(=O)CSCc1ccc(Cl)cc1)OCc1ccccc1

>  <log10 Ki>
1.92

$$$$
>  <compound>
CC(C)CCSCC(=O)[C@H](Cc1ccccc1)NC(=O)[C@H](Cc1ccccc1)NC(=O)OCc1ccccc1

>  <log10 Ki>
1.48

$$$$
>  <compound>
CN1CCN(C(=O)N[C@@H](Cc2cccnc2)C(=O)N[C@H](/C=C/S(=O)(=O)c2ccccc2)CCc2ccccc2)CC1

>  <log10 Ki>
3.56

$$$$

Give log10 Ki only, for Cc1cccc(C[C@H](NC(=O)c2ccccn2)C(=O)N[C@H](/C=C/S(=O)(=O)c2ccccc2)CCc2ccccc2)c1 , using Cruzipain (Trypanosoma cruzi, UniProt P25779) data.
2.45

# return log10 Ki of CC(C)C[C@H](NC(=O)OC(C)(C)C)C(=O)N1CCC[C@@H]1C(=O)N1C(C(=O)OCCc2ccccc2)C1C(=O)OCc1ccccc1 (mixture of isomers) (system: Cruzipain (Trypanosoma cruzi, UniProt P25779))
3.74

State, for Cruzipain (Trypanosoma cruzi, UniProt P25779), measured log10 Ki of the compound listed here: CCOC(=O)CCSCC(=O)[C@H](Cc1ccccc1)NC(=O)[C@H](CC(C)C)NC(=O)N1CCOCC1
1.84

Please tell me the measured log10 Ki for CCOC(=O)CCSCC(=O)[C@H](Cc1ccccc1)NC(=O)[C@H](Cc1ccccc1)NC(=O)OCc1ccccc1 ; system: Cruzipain (Trypanosoma cruzi, UniProt P25779).
0.46

----------
# merged literature set: Ki with Cruzipain (Trypanosoma cruzi)
# unit: nM | format: bare number

>  <molecule>
CCOC(=O)CCSCC(=O)[C@H](Cc1ccccc1)NC(=O)[C@H](Cc1ccccc1)NC(=O)OCc1ccccn1

>  <Ki (nM)>
30.4

$$$$
>  <molecule>
O=C(N[C@@H](Cc1cccc(C(F)(F)F)c1)C(=O)N[C@H](/C=C/S(=O)(=O)c1ccccc1)CCc1ccccc1)c1ccccn1

>  <Ki (nM)>
150

$$$$
>  <molecule>
CC(C)SCC(=O)[C@H](Cc1ccccc1)NC(=O)[C@H](Cc1ccccc1)NC(=O)OCc1ccccc1

>  <Ki (nM)>
4.6

$$$$

// output Ki; input Cc1ccc(C[C@H](NC(=O)c2ccc3c(c2)OCCO3)C(=O)N[C@H](/C=C/S(=O)(=O)c2ccccc2)CCc2ccccc2)cc1 ; system Cruzipain (Trypanosoma cruzi)
19

Please indicate recorded Ki of CCC(C(=O)COc1c(F)c(F)cc(F)c1F)n1cc([C@@](C)(NCc2ccc3ncccc3c2)C2CCC2)nn1 (mixture of isomers) measured with Cruzipain (Trypanosoma cruzi).
350

Look up and report Ki, with Cruzipain (Trypanosoma cruzi) as system, for O=C(N[C@@H](Cc1ccccc1)C(=O)N[C@@H](CCc1ccccc1)C(=O)CSCCCc1ccccc1)OCc1cccnc1 (stereo in doubt; 16e)
0.9

Answer briefly: Ki recorded on Cruzipain (Trypanosoma cruzi) for CC(C)C[C@@H](NC(=O)OC(C)(C)C)C(=O)N1CCC[C@H]1C(=O)N1[C@H](C(=O)OCc2ccccc2)[C@H]1C(=O)OCc1ccccc1
790

----------
Target or system Cruzipain (Trypanosoma cruzi, UniProt P25779); metric Ki; compiled from varied reports.
Each entry belongs to exactly one class, chosen by where its Ki falls: bin 0: < 5 nM; bin 1: ≥ 5 nM and < 100 nM; bin 2: ≥ 100 nM

Solved entries (count: 4):
>  <molecule>
O=C(N[C@@H](Cc1ccccc1)C(=O)N[C@H](CCO)CCc1ccccc1)OCc1ccccc1

>  <target-or-system>
Cruzipain (Trypanosoma cruzi, UniProt P25779)

>  <assigned-class>
bin 2

$$$$
>  <molecule>
CCOC(=O)CCSCC(=O)[C@H](Cc1ccccc1)NC(=O)[C@H](Cc1ccccc1)NC(=O)N1CCOCC1

>  <target-or-system>
Cruzipain (Trypanosoma cruzi, UniProt P25779)

>  <assigned-class>
bin 1

$$$$
>  <molecule>
CC(C)C[C@H](NC(=O)N1CCOCC1)C(=O)N[C@@H](Cc1ccccc1)C(=O)CSCCCc1ccccc1

>  <target-or-system>
Cruzipain (Trypanosoma cruzi, UniProt P25779)

>  <assigned-class>
bin 2

$$$$
>  <molecule>
CC(C)N1CC(=O)C(NC(=O)[C@H](Cc2ccccc2)NC(=O)OCc2ccccc2)CC1=O (some centres not stated)

>  <target-or-system>
Cruzipain (Trypanosoma cruzi, UniProt P25779)

>  <assigned-class>
bin 2

$$$$

// return the class label for O=C(CSCCCc1ccccc1)[C@H](Cc1ccccc1)NC(=O)[C@H](Cc1ccccc1)NC(=O)N1CCOCC1
bin 2

The entry to classify is O=C(COc1ccc2ccccc2c1Br)NCCc1nc2ccccc2[nH]1 ; which class holds it?
bin 1

Dear colleague, I would appreciate it if you could identify the bin for O=C(N[C@@H](Cc1ccccc1)C(=O)N[C@@H](Cc1ccccc1)C(=O)CSCc1ccccc1)OCc1ccccc1 and reply at your convenience.
bin 1

Which Ki category applies to O=C(N[C@@H](Cc1ccccc1)C(=O)N[C@@H](Cc1ccccc1)C(=O)CSCCCc1ccccc1)OCc1ccccc1 here?
bin 0

Could you place Cc1ccc(C[C@H](NC(=O)c2cc(F)cc(F)c2)C(=O)N[C@H](/C=C/S(=O)(=O)c2ccccc2)CCc2ccccc2)cc1 in its proper category? Many thanks.
bin 2

// bin(item) where item = CCC(C(=O)COc1c(F)c(F)cc(F)c1F)n1cc([C@](C)(CC(C)C)NCc2ccc3ncccc3c2)nn1 (some centres not stated)
bin 2

Input CC(C)C[C@H](NC(=O)OCc1ccccc1)C(=O)N[C@@H](Cc1ccccc1)C(=O)CSCCCc1ccccc1 ; output its category
bin 0

Band for the recorded Ki of CC(C)(C)SCC(=O)[C@H](Cc1ccccc1)NC(=O)[C@H](Cc1ccccc1)NC(=O)N1CCOCC1 ?
bin 1

// bin(item) where item = CC(C)C[C@H](NC(=O)OCc1cccnc1)C(=O)N[C@@H](CCc1ccccc1)C(=O)CSCCCc1ccccc1
bin 0

Which class is correct for the following molecule? CC(C)C[C@H](NC(=O)OC(C)(C)C)C(=O)N1CCC[C@@H]1C(=O)N1C(C(=O)OCc2ccccc2)C1C(=O)OCC1CCCCC1 (mixture of isomers)
bin 2

For this molecule, which bin applies? O=C(N[C@@H](Cc1ccccc1)C(=O)N[C@@H](Cc1ccccc1)C(=O)CSC1CCCCC1)OCc1ccccc1
bin 1

Please report the category associated with CC(C)(C)SCC(=O)[C@H](CCc1ccccc1)NC(=O)[C@H](Cc1ccccc1)NC(=O)OCc1cccnc1 , nothing else.
bin 0

Categorize the following entry: CC(C)(C)SCC(=O)[C@H](Cc1ccccc1)NC(=O)[C@H](Cc1ccccc1)NC(=O)OCc1cccnc1
bin 0

Exam item: assign O=C(N[C@@H](Cc1ccccc1)C(=O)N[C@@H](Cc1ccccc1)C(=O)CSCCCc1ccccc1)OCc1cccnc1 to the correct category.
bin 1

Using the reported Ki, which band applies to CC(C)(C)SCC(=O)[C@H](Cc1ccccc1)NC(=O)[C@H](Cc1ccccc1)NC(=O)OCc1ccccc1 ?
bin 0

# classify by Ki band: CC(C)CN1CC(=O)C(NC(=O)[C@H](Cc2ccccc2)NC(=O)OCc2ccccc2)CC1=O (some centres not stated)
bin 2

Consider CC(C)C[C@H](NC(=O)OCc1ccccn1)C(=O)N[C@@H](Cc1ccccc1)C(=O)CSC(C)(C)C . To which Ki class does it belong?
bin 1
